B1: monoclonal antibody 7g7 (IgG) [mouse] / P. vivax CelTOS (Sal-1, PVX_123510, residue L36-D196) [P. vivax] (parent complex)
chain 1: EIQLQQSGPELVKPGASVKVSCKASGYSFTDYNMYWVKQSHGKSLEWIGYIDPYNGGTRYNQKFRDKATLTVDKSSSTAFMHLNSLTSEDSAVYYCARGYYYGNPLHFDVWGAGTTVTVSSAKTTPPSVYPLAPGSAAQTNSMVTLGCLVKGYFPEPVTVTWNSGSLSSGVHTFPAVLQSDLYTLSSSVTVPSSTWPSETVTCNVAHPASSTKVDKKIVPR
chain 2: QIVLTQSPAIMSASPGEKVTMTCSASSSVSYIHWYQQKSGTSPKRWIYDTSKLASGVPARFSGSGSGTSYSLTISSMEAEDAATYYCQQWISYPATFGAGTKLELKRADAAPTVSIFPPSSEQLTSGGASVVCFLNNFYPKDINVKWKIDGSERQNGVLNSWTDQDSKDSTYSMSSTLTLTKDEYERHNSYTCEATHKTSTSPIVKSFNRNEC
chain 3: LRGKSGSTASSSLEGGSEFSERIGNSLSSFLSESASLEVIGNELADNIANEIVSSLQKDSASFLQSGFDVKTQLKATAKKVLVEALKAALEPTEKIVASTIKPPRVSEDAYFLLGPVVKTLFNKVEDVLHKPIPDTIWEYESKGSLEEEEAEDEFSDELLD

Variants of: B1
Assay: ELISA; parent: 100; read off a plot
measuredProperty: percent of parent

Past entries and their recorded results:
[
  {
    "residueChange": "chain 3 E108A, chain 3 D109A",
    "measuredProperty": "percent of parent",
    "result": "~68%"
  },
  {
    "residueChange": "chain 3 L129A, chain 3 H130A, chain 3 K131A",
    "measuredProperty": "percent of parent",
    "result": "~1%"
  },
  {
    "residueChange": "chain 3 K102A, chain 3 P103A, chain 3 P104A",
    "measuredProperty": "percent of parent",
    "result": "~86%"
  }
]

In: Entry under review: chain 3 F112A, chain 3 L113A, chain 3 L114A . Reported percent of parent?
Out: ~50%

In: Same question for chain 3 W138A, chain 3 E139A, chain 3 Y140A please.
Out: ~1%

In: And chain 3 S29A, chain 3 F30A, chain 3 L31A ?
Out: ~100%

The measured values listed here are drawn from paper PMC11362571.
